target: cAMP-specific 3',5'-cyclic phosphodiesterase 4A (Homo sapiens); assay: PDE4A Inhibition Assay
Sequence (P27815 whole entry): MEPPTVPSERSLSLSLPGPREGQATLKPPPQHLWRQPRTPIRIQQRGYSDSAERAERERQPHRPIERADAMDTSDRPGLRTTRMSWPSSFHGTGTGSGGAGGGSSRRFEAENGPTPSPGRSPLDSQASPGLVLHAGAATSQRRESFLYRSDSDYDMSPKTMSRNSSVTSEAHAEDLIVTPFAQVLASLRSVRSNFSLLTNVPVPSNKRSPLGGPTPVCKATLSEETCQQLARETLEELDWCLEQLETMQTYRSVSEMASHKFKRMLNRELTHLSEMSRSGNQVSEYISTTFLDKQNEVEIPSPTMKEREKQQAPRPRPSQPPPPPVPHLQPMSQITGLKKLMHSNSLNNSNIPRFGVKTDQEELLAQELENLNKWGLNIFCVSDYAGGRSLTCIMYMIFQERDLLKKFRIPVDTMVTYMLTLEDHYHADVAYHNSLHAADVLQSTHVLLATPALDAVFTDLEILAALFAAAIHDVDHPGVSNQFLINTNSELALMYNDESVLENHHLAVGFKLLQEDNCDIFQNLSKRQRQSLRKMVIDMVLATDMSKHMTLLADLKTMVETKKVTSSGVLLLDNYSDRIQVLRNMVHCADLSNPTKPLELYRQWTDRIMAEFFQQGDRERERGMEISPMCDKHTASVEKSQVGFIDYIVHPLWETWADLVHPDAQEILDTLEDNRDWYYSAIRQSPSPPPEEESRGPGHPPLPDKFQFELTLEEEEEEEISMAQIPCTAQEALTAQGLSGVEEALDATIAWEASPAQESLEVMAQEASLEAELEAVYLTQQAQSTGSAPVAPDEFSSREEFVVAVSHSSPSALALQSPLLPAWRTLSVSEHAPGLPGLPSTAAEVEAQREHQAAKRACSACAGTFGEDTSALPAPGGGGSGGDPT
pIC50: −log10 of the molar value.

| Molecule | Relation symbol | pIC50 |
| --- | --- | --- |
| COc1ccc(C2=Nn3c(nnc3-c3ccc(OC)cc3OC)SC2)cc1 | < | 4.70 |
| COc1cccc(-c2nnc3n2N=C(c2c(OC)cccc2OC)CS3)c1OC [triazolothiadiazine, 11D] | < | 4.70 |
| COc1ccc(C2=Nn3c(nnc3-c3ccccc3OC)SC2)cc1 | < | 4.70 |
| COc1ccc(C2=Nn3c(nnc3-c3cc(OC)ccc3OC)SC2)cc1 | = | 5.77 |
| COc1ccc(C2=Nn3c(nnc3-c3ccccc3OC)SC2)c(OC)c1 | = | 4.82 |
| COc1ccc(C2=Nn3c(nnc3-c3ccccc3O)SC2)c(OC)c1 | < | 4.70 |
| COc1cc(OC)cc(-c2nnc3n2N=C(c2ccc(OC)cc2OC)CS3)c1 | < | 4.70 |
| CCOc1ccccc1-c1nnc2n1N=C(c1cc(OC)ccc1OC)CS2 [triazolothiadiazine, 10J] | = | 4.87 |
| COc1ccc(OC)c(-c2nnc3n2N=C(c2c(OC)cccc2OC)CS3)c1 [triazolothiadiazine, 11F] | < | 4.70 |
| COc1ccc(C2=Nn3c(nnc3-c3cccc(OC)c3OC)SC2)c(OC)c1 | < | 4.70 |
| COc1ccc(C2=Nn3c(nnc3-c3ccccc3O)SC2)cc1 | = | 5.08 |
| COc1ccc(C2=Nn3c(nnc3-c3cccc(OC)c3OC)SC2)cc1 | < | 4.70 |
| COc1cc(OC)cc(-c2nnc3n2N=C(c2c(OC)cccc2OC)CS3)c1 [triazolothiadiazine, 11H] | = | 4.71 |
| COc1cc(OC)cc(-c2nnc3n2N=C(c2cc(OC)ccc2OC)CS3)c1 [triazolothiadiazine, 10H] | = | 4.90 |
| COc1ccc(C2=Nn3c(nnc3-c3ccc(OC)cc3OC)SC2)c(OC)c1 | < | 4.70 |
| CCOc1ccccc1-c1nnc2n1N=C(c1ccc(OC)cc1OC)CS2 | < | 4.70 |
| CCOc1ccccc1-c1nnc2n1N=C(c1ccc(OC)cc1)CS2 | = | 5.35 |
| COc1ccc(-c2nnc3n2N=C(c2cc(OC)ccc2OC)CS3)cc1 [triazolothiadiazine, 10C] | = | 5.00 |
| COc1ccc(C2=Nn3c(nnc3-c3ccccc3C)SC2)c(OC)c1 | < | 4.70 |
| COc1ccc(-c2nnc3n2N=C(c2ccc(OC)cc2OC)CS3)cc1 | = | 4.87 |

From: BindingDB's records for doi:10.1016/j.bmcl.2008.01.028
